Below, each entry is listed alongside its reported koff.
Target: T1, hANGPTL3(17-169)-mFc (human)
T1 construct: also called N-terminal coiled-coil domain of hANGPTL3 with a C-terminal mouse Fc fusion
T1 chain: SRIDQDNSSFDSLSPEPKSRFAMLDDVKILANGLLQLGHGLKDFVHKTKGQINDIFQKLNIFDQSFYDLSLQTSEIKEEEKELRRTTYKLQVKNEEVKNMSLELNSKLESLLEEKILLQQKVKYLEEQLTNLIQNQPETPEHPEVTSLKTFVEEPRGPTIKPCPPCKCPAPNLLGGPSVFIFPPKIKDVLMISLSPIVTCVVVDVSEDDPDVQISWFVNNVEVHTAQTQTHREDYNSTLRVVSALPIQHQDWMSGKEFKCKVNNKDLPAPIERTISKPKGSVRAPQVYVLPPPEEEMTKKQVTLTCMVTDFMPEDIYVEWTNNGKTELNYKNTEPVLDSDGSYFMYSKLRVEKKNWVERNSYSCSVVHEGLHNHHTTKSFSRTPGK
Test: SPR Biacore, antigen captured, 25C, pH 7.4, HBS-EP
The answer is to be given in s⁻¹; state only the numeric part.

H4H1268S (antibody, IgG4, V domains shown) VH: QVQLQQSGPGLVKPSQTLSLTCAISGDSVSSNSPAWNWIRQSPSRGLEWLGRTYYRSKWYNDYAVSVRGRITINPDTSNNQFSLHLNSVTPEDTAMYYCARDKGLTARPTYFDYWGQGTLVTVSS VL: DIQMTQSPSTLSASVGDRVTITCRASQSINYWLAWYQQKPGKAPKPLIYKASSLESGVPSRFSGSGSGTEFTLTISSLQPDDFTTYYCQQYNSYSPTFGQGTKLEIKR ... 0.000835

Next item in the queue.
Look at this binder and give its reported koff. H4H1292P (antibody, IgG4, V domains shown) VH: QVQLVESGGGLVKPGGSLRLSCAASGFTFSDYYMSWIRQAPGKGLEWVSYISSSGSTIYYADSVKGRFTISRDNAKNSLYLQMNSLRAEDTAVYYCARDSSQLGFDYWGQGTLVTVSS VL: DIQMTQSPSSLSASVGDRVTITCRASQSIISFLNWYQQKPGKAPKLLIYTASSLQSGVPSRFSGSGSGTDFTLTISSLQPEDFATYYCQQTYSNPLTFGGGTKVEIKR 0.000177
